Provide the reported IRF reporter of each item.
system: RAW-Dual (murine macrophage reporter line); assay: IRF reporter (Lucia luciferase) activity fold change vs agonist alone; higher = enhanced IRF activity; settings: modulator concentration 10 µM; agonist: MPLA […]
The reply should be a number, written without any unit.

Quick one: IRF reporter for "NC(=O)c1ccc(I)c([N+](=O)[O-])c1" ?
1

Quick one: IRF reporter for "O=C(CCc1csc(NC(=O)c2ccco2)n1)Nc1ccc(Cl)cc1" ?
1.55

Quick one: IRF reporter for "Cc1cccc(OCCCSc2nc3ccccc3[nH]2)c1" ?
1.39

Quick one: IRF reporter for "CN1CCN(c2ccc(-c3cccc(NC(=O)COc4ccc(Cl)cc4Cl)c3)nn2)CC1" ?
1.12

Quick one: IRF reporter for "Cc1ccc(S(=O)(=O)n2cnc3ccccc32)cc1" ?
0.993

Quick one: IRF reporter for "Cc1oncc1C(=O)Nc1ccc(C(F)(F)F)cc1" ?
2.03

---

system: RAW-Dual (murine macrophage reporter line); assay: IRF reporter (Lucia luciferase) activity fold change vs agonist alone; higher = enhanced IRF activity; details: modulator concentration 10 µM; agonist: 3'3'-cGAMP 10 ug/mL
Label t when IRF reporter >= 0.8; otherwise f.

Is the recorded value of IRF reporter equal to or greater than 0.8 for this compound? "C=CC(=O)Nc1cccc(Oc2nc(Nc3ccc(N4CCN(C)CC4)cc3)nc3ccsc23)c1"
f

Is the recorded value of IRF reporter equal to or greater than 0.8 for this compound? "Nc1ccccc1NC(=O)c1ccc(CNC(=O)OCc2cccnc2)cc1"
f

Is the recorded value of IRF reporter equal to or greater than 0.8 for this compound? CN1c2ccccc2-c2ccccc2C12C=Cc1cc([N+](=O)[O-])ccc1O2 (stereo unspecified)
t

Is the recorded value of IRF reporter equal to or greater than 0.8 for this compound? O=C(CSC1CC(=O)N(c2ccc(C(=O)O)cc2)C1=O)Nc1ccc(F)cc1 (stereo unspecified)
f

Is the recorded value of IRF reporter equal to or greater than 0.8 for this compound? "Cc1cc(CNC(=O)CCc2ccc(C(F)(F)F)cc2)c(C)o1"
t

Is the recorded value of IRF reporter equal to or greater than 0.8 for this compound? "Fc1ccc(Nc2nc(NN=Cc3ccc(Cl)cc3)nc(N3CCCCC3)n2)cc1"
t

Is the recorded value of IRF reporter equal to or greater than 0.8 for this compound? "O=C(NC1CCCCC1)c1cccc(C(F)(F)F)c1"
f

Is the recorded value of IRF reporter equal to or greater than 0.8 for this compound? "CCOc1ccc(CC(=O)NC2(c3nc(-c4ccccc4)no3)CCCCC2)cc1OCC"
t

Is the recorded value of IRF reporter equal to or greater than 0.8 for this compound? CCC(C)NC(=O)C(=O)Nc1cccc(C(F)(F)F)c1 (stereo unspecified)
t

Is the recorded value of IRF reporter equal to or greater than 0.8 for this compound? "CN1CCN(C(=O)c2cc(-c3ccccc3)nc3ccccc23)CC1"
t

Is the recorded value of IRF reporter equal to or greater than 0.8 for this compound? "COc1ccccc1C(=O)Nc1ccc(Nc2ccc(-n3cccn3)nn2)cc1"
f

Is the recorded value of IRF reporter equal to or greater than 0.8 for this compound? "CCN(CC)CCNC(=O)c1c(C)[nH]c(/C=C2\C(=O)Nc3ccc(F)cc32)c1C"
f

Is the recorded value of IRF reporter equal to or greater than 0.8 for this compound? "Cc1ccc(-n2nc(C(C)(C)C)cc2NC(=O)NCc2cc(F)ccc2Oc2ccc3c(cnn3CCO)c2)cc1"
t

Is the recorded value of IRF reporter equal to or greater than 0.8 for this compound? "CCc1cccc(C)c1NC(=O)C(C)(C)CC"
t

Is the recorded value of IRF reporter equal to or greater than 0.8 for this compound? "Cc1c(NC(=S)NC(=O)c2ccccc2[N+](=O)[O-])cccc1-c1nc2ccccc2o1"
f

Is the recorded value of IRF reporter equal to or greater than 0.8 for this compound? CN(C)C1C(O)=C(C(N)=O)C(=O)C2(O)C(O)=C3C(=O)c4c(O)cccc4C(C)(O)C3CC12.Cl (stereo unspecified)
t

Is the recorded value of IRF reporter equal to or greater than 0.8 for this compound? "COc1ccc(-c2ccc(OCCNC(=O)Cc3ccc(Br)cc3)nn2)cc1"
t

Is the recorded value of IRF reporter equal to or greater than 0.8 for this compound? Cc1ccccc1C(=O)Nc1ccc(C(=O)N2CCCC(O)c3cc(Cl)ccc32)c(C)c1 (stereo unspecified)
f

Is the recorded value of IRF reporter equal to or greater than 0.8 for this compound? "O=C(c1cc2cc(F)ccc2s1)N1CCc2ncncc2C1"
t

Is the recorded value of IRF reporter equal to or greater than 0.8 for this compound? "CCCC1=NN2C(=N)C(=Cc3cccc(OCc4ccccc4F)c3)C(=O)N=C2S1"
t
